Reference for the values: paper PMC12730060

Listed next: entries and their corresponding inhibition at 10 µM.
test system: P. falciparum 3D7-GFP; assay: Screening at fixed concentration against unsynchronized asexual blood stages, flow cytometry (GFP); format: cell-based; conditions: Plasmodium falciparum, 3D7, 72 h, read-out: Inhibition (%) 10 μΜ
measured quantity: inhibition at 10 µM (%)

structure_string=COc1cc(/C=N/N2C(=O)C(C#N)=CC23c2ccccc2Nc2ccccc23)cc(OC)c1O measured_quantity="inhibition at 10 µM" units=% recorded_measurement=66.8
structure_string=COc1ccc(/C=N/NC(=O)CC#N)cc1 measured_quantity="inhibition at 10 µM" units=% recorded_measurement=13.4
structure_string=N#CCC(=O)N/N=C/c1c[nH]c2ccccc12 measured_quantity="inhibition at 10 µM" units=% recorded_measurement=16.8
structure_string=N#CCC(=O)N/N=C/c1ccnc2ccccc12 measured_quantity="inhibition at 10 µM" units=% recorded_measurement=14.7
structure_string=N#CCC(=O)N/N=C/c1ccccc1 measured_quantity="inhibition at 10 µM" units=% recorded_measurement=14.8
structure_string=N#CC1=CC2(c3ccccc3Nc3ccccc32)N(/N=C/c2ccc(Cl)cc2)C1=O measured_quantity="inhibition at 10 µM" units=% recorded_measurement=62.4
structure_string=COc1cc(/C=N/NC(=O)CC#N)cc(OC)c1O measured_quantity="inhibition at 10 µM" units=% recorded_measurement=5.5
structure_string=N#CCC(=O)N/N=C/c1ccc(Cl)cc1 measured_quantity="inhibition at 10 µM" units=% recorded_measurement=12.4
structure_string=COc1cc(/C=N/NC(=O)CC#N)cc(OC)c1OC measured_quantity="inhibition at 10 µM" units=% recorded_measurement=12.6
